Target: DYRK1A protein kinase (Homo sapiens (Human))
Assay: Radiometric protein kinase assay (33PanQinase Activity Assay)
Assay type: biochemical
Settings: 10 concentrations in triplicate, 1 μM ATP; read-out: IC50: Concentration of drug (μM) needed in order to inhibit dyrk1A kinase activity by 50%
measurement.label: IC50 (µM)

P = Cc1nccc2c3ccc(OCc4ccccc4)cc3n(Cc3ccccc3)c12
Q = Cc1nccc2c1[nH]c1cc(OCc3cccnc3)ccc12
When P and Q are compared, which has the higher number for IC50? Label of pick, please. P
(P: 16.3 µM, Q: 10 µM)

###

Test system: U373 cells
Assay: Cellular imaging (videomicroscopy) of cultured U373 cells: antiproliferative class and global growth ratio
Format: cell-based, human
Settings: GG treated cells/GG control cells, 72 h after drug addition, drug at its IC50 (MTT-test determined)
Recorded global growth ratio (GGR) for the following compounds
Simply state the number, no unit and no words.

Below, 2 compounds whose answers are already recorded.
Cc1c2c(cc[n+]1Cc1ccccc1)c1ccc(OCc3cccc(F)c3)cc1n2Cc1cccc(F)c1.[Br-] [CV16] | 0.4
Cc1nccc2c1[nH]c1cc(OC(=O)c3ccccc3)ccc12 [JR140] | 0.2

Documented global growth ratio (GGR) of Cc1nccc2c1[nH]c1cc(OCc3ccccn3)ccc12 [JR169] : 0.4

Documented global growth ratio (GGR) of Cc1nccc2c1[nH]c1cc(OCCO)ccc12 [JR226] : 0.3

Documented global growth ratio (GGR) of Cc1nccc2c1[nH]c1cc(OCCc3ccccc3)ccc12 [JR155] : 0.2

Documented global growth ratio (GGR) of Cc1c2c(cc[n+]1Cc1ccc(F)cc1)c1ccc(OCc3ccc(F)cc3)cc1n2Cc1ccc(F)cc1.[Br-] [CV29] : 0.1

Documented global growth ratio (GGR) of Cc1c2c(cc[n+]1Cc1ccc(F)cc1)c1ccc(OCc3ccccc3)cc1n2Cc1ccccc1.[Br-] [CV17] : 0.4

Documented global growth ratio (GGR) of Cc1nccc2c1[nH]c1cc(OCc3cccnc3)ccc12 [JR212] : 0.3

Documented global growth ratio (GGR) of Cc1c2c(cc[n+]1Cc1ccccc1)c1ccc(OCc3ccc(F)cc3)cc1n2Cc1ccc(F)cc1.[Br-] [CV23] : 0.3

Documented global growth ratio (GGR) of Cc1c2c(cc[n+]1Cc1ccc(F)cc1)c1ccc(OCC3CCCCC3)cc1n2CC1CCCCC1.[Br-] [CV30] : 0.8

Documented global growth ratio (GGR) of Cc1c2c(cc[n+]1Cc1ccccc1)c1ccc(OCC3CCCCC3)cc1n2CC1CCCCC1.[Br-] [CV24] : 0.3

Documented global growth ratio (GGR) of Cc1nccc2c1[nH]c1cc(OCc3ccccc3)ccc12 [JR79, 1-methyl-7-benzyloxy-β-carboline] : 0.2

Documented global growth ratio (GGR) of Cc1nccc2c3ccc(OCc4ccccc4)cc3n(Cc3ccccc3)c12 [CV9/JR84] : 0.3

Documented global growth ratio (GGR) of CCCn1c2cc(OCc3ccccc3)ccc2c2cc[n+](Cc3ccccc3F)c(C)c21.[Br-] [CV35] : 0.4

Documented global growth ratio (GGR) of Cc1nccc2c1[nH]c1cc(OCC(C)C)ccc12 [JR221] : 0.1

Documented global growth ratio (GGR) of CCCn1c2cc(OCc3ccccc3)ccc2c2cc[n+](Cc3ccc(F)cc3)c(C)c21.[Br-] [CV36] : 0.1

Documented global growth ratio (GGR) of Cc1c2[nH]c3cc(OCc4ccccc4)ccc3c2cc[n+]1Cc1ccccc1 [JR88] : 0.2
